# Test system: antibodies in sera from SARS patients (sera 1a, 1b, 2, 6, 37, 62, London, SARS-yellow, SARS-green)
# Type: binding, human
sequences and their reported Binding of serum 62 to linear peptides of protein N of SARS-CoV Urbani
RESULT_TYPE: Binding of serum 62 to linear peptides of protein N of SARS-CoV Urbani

- MONOMER_SEQUENCE: "VPINTNSGPDDQIGY"
  DATA_VALUE: 0.7
- MONOMER_SEQUENCE: "HWPQIAQFAPSASAF"
  DATA_VALUE: 0.7
- MONOMER_SEQUENCE: "DEAQPLPQRQKKQPT"
  DATA_VALUE: 0.7
- MONOMER_SEQUENCE: "ATRRVRGGDGKMKEL"
  DATA_VALUE: 0.7
- MONOMER_SEQUENCE: "LPQRQKKQPTVTLLP"
  DATA_VALUE: 0.7
- MONOMER_SEQUENCE: "PPTEPKKDKKKKTDE"
  DATA_VALUE: 0.7
- MONOMER_SEQUENCE: "EGIVWVATEGALNTP"
  DATA_VALUE: 0.7
- MONOMER_SEQUENCE: "YHGAIKLDDKDPQFK"
  DATA_VALUE: 1.6
- MONOMER_SEQUENCE: "DLIRQGTDYKHWPQI"
  DATA_VALUE: 0.6
- MONOMER_SEQUENCE: "PQIAQFAPSASAFFG"
  DATA_VALUE: 0.6
- MONOMER_SEQUENCE: "KKQPTVTLLPAADMD"
  DATA_VALUE: 0.7
- MONOMER_SEQUENCE: "MSRIGMEVTPSGTWL"
  DATA_VALUE: 0.7
